Target: T1, soluble dimeric FcγRIIB (extracellular domain fused to hinge-CH2-CH3 of human IgG2) (human, UniProt P31994 43-217)
T1 construct: extracellular domain; also called FcRIIB; FcRIIB-Fc; not shown: human IgG2 hinge-CH2-CH3
T1 sequence (looked up): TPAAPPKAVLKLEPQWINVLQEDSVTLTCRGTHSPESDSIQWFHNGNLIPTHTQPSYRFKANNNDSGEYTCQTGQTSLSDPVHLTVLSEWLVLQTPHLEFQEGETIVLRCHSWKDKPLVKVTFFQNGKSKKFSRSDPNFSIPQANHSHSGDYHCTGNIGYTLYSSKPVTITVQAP
Assay: ELISA
ENDPOINT NAME: Binding to FcγRIIB (ELISA) (fold increase)

- BINDER: "IgG1 Fc mutant V397M, T411A, S415N (antibody) heavy: ASTKGPSVFPLAPSSKSTSGGTAALGCLVKDYFPEPVTVSWNSGALTSGVHTFPAVLQSSGLYSLSSVVTVPSSSLGTQTYICNVNHKPSNTKVDKKVEPKSCDKTHTCPPCPAPELLGGPSVFLFPPKPKDTLMISRTPEVTCVVVDVSHEDPEVKFNWYVDGVEVHNAKTKPREEQYNSTYRVVSVLTVLHQDWLNGKEYKCKVSNKALPAPIEKTISKAKGQPREPQVYTLPPSRDELTKNQVSLTCLVKGFYPSDIAVEWESNGQPENNYKTTPPMLDSDGSFFLYSKLAVDKNRWQQGNVFSCSVMHEALHNHYTQKSLSLSPGK"
  RECORDED RESULT: 5
- BINDER: "IgG1 Fc mutant F275L, Q362H, N384K, P396L (antibody) heavy: ASTKGPSVFPLAPSSKSTSGGTAALGCLVKDYFPEPVTVSWNSGALTSGVHTFPAVLQSSGLYSLSSVVTVPSSSLGTQTYICNVNHKPSNTKVDKKVEPKSCDKTHTCPPCPAPELLGGPSVFLFPPKPKDTLMISRTPEVTCVVVDVSHEDPEVKLNWYVDGVEVHNAKTKPREEQYNSTYRVVSVLTVLHQDWLNGKEYKCKVSNKALPAPIEKTISKAKGQPREPQVYTLPPSRDELTKNHVSLTCLVKGFYPSDIAVEWESKGQPENNYKTTPLVLDSDGSFFLYSKLTVDKSRWQQGNVFSCSVMHEALHNHYTQKSLSLSPGK"
  RECORDED RESULT: 3.7
